I'd appreciate it if you could supply folding stability dG unfold values for the items below.
assayText: folding stability dG unfold from chymotrypsin proteolysis; higher = more stable
The figure you give is taken to be in kcal/mol; do not add the unit.

// fetch folding stability dG unfold given entry SAGGMLEEVAEELAKELNATAREFTTVGDVPRILLTFKVPGSSTYLEVTLTLPPDGSVERTTKPIAASAGGS [r16_433_JUSTAS] 1.7

// fetch folding stability dG unfold given entry SAGGKLKEAFEKNGYKAYVHPDSPVVTVEFYKPVKLENGEWKPKKLGTKTIEVDGVDLEKAYEILLKESAGG [r13_924_TrMRF] 0.935

// fetch folding stability dG unfold given entry SAGKPLPKLKTYEVDVPDNKKVKIEVYKLPDGTAIVKIKDDNGNESEIEIPLSLLENLSVEDLVKLAKSAGG [r19_47_TrMRF] 2.28

// fetch folding stability dG unfold given entry SAGGNLDKEFVRDIIENFGFTRIEVEEHPNRKVVTFRFENMDVVIRPDGQIEIENPGGEPVFQIEVPSAGGS [r8_147_TrROS] 1.63

// fetch folding stability dG unfold given entry SAGMVIPYKELKKNLSEEELIELAKEAAEKLGYKPKKIEIKETPEPDKYIVIDVIDENGNKHPIVFPSKSAG [r5_745_TrMRF] 0.374

// fetch folding stability dG unfold given entry SAGGSAGGSSMKVEVTVEPVDPARGLYRVTITLYDPNSDTPLKTVPVLAESPEEIEAAILELLSAGGSAGGS [r12_26_JUSTAS] 2.91

// fetch folding stability dG unfold given entry SAGGSAGGSAGGGMPSYVTKTTTTTVKITNTTTGGNSTTTTTSTVTVTTTTLLPPGLLASAGGSAGGSAGGS [r10_300_JUSTAS] 1.2

// fetch folding stability dG unfold given entry SAGGSAGGSKKVKIEINVVVPPGMTPEKAKQMAEEFAREIAEAYGGKDVKVKVRIMYIPPDQFSAGGSAGGS [r12_522_TrROS] 2.19

// fetch folding stability dG unfold given entry SAGGSAGGPNWVKFPIMFEMPIPVVPKMEKDPDGENRMEPVKPVRISIMIELTLPPDDLEDLIKSAGGSAGG [r6_120_TrROS] 2.28

// fetch folding stability dG unfold given entry SAGGSAGGSAGGTITIPIYLDDKWITITRIELSPPDGKIKIEFTFNNRPREFDIPIPPGASAGGSAGGSAGG [r7_477_TrROS] 2.71

// fetch folding stability dG unfold given entry SAGGSAGGSMNVSPEELEALARERIEALLAENPDVPRDDVVLEFEGRSESPGKVITLTLRVRASAGGSAGGS [r12_707_JUSTAS] -0.00174

// fetch folding stability dG unfold given entry SAGGSAGGSAAEPPPPATIEVLVLNEDGYVYRAEIRVNEDGEITIEVEKIPVKPGESLEELSAGGSAGGSAG [r3_437_TrROS_Hall] 4

// fetch folding stability dG unfold given entry EAFEKAIEAAIEAAEKGEKETEITLPLPDGKAIRVHATVEVKDGKPVRVDIHVELYGPNNVPYPFTLTITAS [r1_254_TrMRF] 2.83

// fetch folding stability dG unfold given entry SAGGSAGGESSRLVAVFKFPPSNPNIKTSISFPSLPKSAKISESQAPFGNEYYLVVVIEVPKNSSAGGSAGG [r6_480_TrMRF] 3.88

* * *

assayText: folding stability dG unfold from chymotrypsin proteolysis; higher = more stable
Parameter threshold = 2 kcal/mol. Response is Met when folding stability dG unfold meets or exceeds it, else Not met.

Is reported folding stability dG unfold greater than or equal to 2 kcal/mol here: SAGGSAGGKKTYRLEITIYNKDGKEIKKIEIEAETEEEALEAAKKLQEEAKKKGLKVEIKVEKVSAGGSAGG [r6_285_TrROS_Hall] Met

Is reported folding stability dG unfold greater than or equal to 2 kcal/mol here: SAGGSAGGSAMPLEKVIKNLTSSGSVESLKEKLAKEYGVEKVEVTKDPNSDTYSAKVFLKKPSAGGSAGGSA [r18_275_JUSTAS] Not met

Is reported folding stability dG unfold greater than or equal to 2 kcal/mol here: WRIRVEIEMYNPDGDPMEMEIQIPVDKLQELRQEGEPFTKEELVDEIVEIIRDMMPEHGMPIEIKIVEIVPS [r1_174_TrROS] Not met

Is reported folding stability dG unfold greater than or equal to 2 kcal/mol here: SAGGSAGGSAGMKPDDTVTYTITVPHPESGEPLAEIELTYPVGTPIEKVKEEAKILAEKISAGGSAGGSAGG [r11_516_TrMRF] Not met

Is reported folding stability dG unfold greater than or equal to 2 kcal/mol here: SAGGSFWVFVIEISVKFEQYGDPDGNWKFEIEKVDVKITEIIPIPPEMMDKLREAKAEGMEPEEILSAGGSA [r2_327_TrROS] Met

Is reported folding stability dG unfold greater than or equal to 2 kcal/mol here: SAGGSAGGMEEIVLPIPEEVAKELIASGTVTKTQTEGNRTILTKTPPSGGSTKITVVLPPSYPSSAGGSAGG [r6_654_JUSTAS] Not met

Is reported folding stability dG unfold greater than or equal to 2 kcal/mol here: SAMTLRIELTKEELEKLIKELKPGDEVELEIEVNGRTYRIRAKITRIERVDDKVYIEVELEIEELPEEESAG [r14_335_TrROS_Hall] Met

Is reported folding stability dG unfold greater than or equal to 2 kcal/mol here: SAGGSAGGSALKPGEPITIIFLFKEPNGRPYIMVIEIEVNPDGGIKIKGMEMITLEDLDKISAGGSAGGSAG [r3_212_TrROS] Met

Is reported folding stability dG unfold greater than or equal to 2 kcal/mol here: SAGGEFEVYRVKSPDSVVTVTVLPDRVVVNLTDEKNPKVVPIPYPPGHPPTLEDVLALLKSLGFKVEPSAGG [r13_687_TrMRF] Not met

Is reported folding stability dG unfold greater than or equal to 2 kcal/mol here: SAGFWIRIDPKNPRIYISGMPPGMIELIAENAGAPDVTPVKPGRPWWDARDNHPDPDAVIPIPPENMMSAGG [r19_270_TrROS] Not met

Is reported folding stability dG unfold greater than or equal to 2 kcal/mol here: SAGGSAKRYFIMIDIRYPGDGKEIYPLVIPIPPGEPISIEDILDEIGFPPENADNVDIEIHTFRAKSAGGSA [r15_665_TrROS] Not met

Is reported folding stability dG unfold greater than or equal to 2 kcal/mol here: SAPAVLLEEPDTLVEVEKLPDGSLLIRRVTKFPDGSVTVEISVIYPGGSLSVLESVTLNVPPEEPLPLLSAG [r14_42_JUSTAS] Not met

Is reported folding stability dG unfold greater than or equal to 2 kcal/mol here: SAGGSAGGAIAPGEEVEAEVTIVDPLTGKETTAKVTLTVHPTSVTITLPGGKPAVVPAAYVRFGSAGGSAGG [r6_436_TrMRF] Not met

* * *

assayText: folding stability dG unfold from chymotrypsin proteolysis; higher = more stable
We'd kindly ask you to apply these folding stability dG unfold classes: low end = under 1 kcal/mol, middle = from 1 kcal/mol up to 3 kcal/mol, high end = 3 kcal/mol and over

Dear colleague, I would appreciate it if you could identify the bin for SAGMEAIRKKAEELAKKGKIFKITLTGPDGIPETKILSPEEFKKFLEEFPDPEAIASVEVEAYEPGKPISAG [r5_957_JUSTAS] and reply at your convenience. high end

Dear colleague, I would appreciate it if you could identify the bin for SAGGSAGGMPEYRVLDIEIETRPDMTPEEAVEEIRKALEPLGAIRVEAEPLPDGRIRVRVVLPESAGGSAGG [r6_881_TrMRF] and reply at your convenience. middle

Dear colleague, I would appreciate it if you could identify the bin for SAGGSAGGPIVLKFPSPEDLEKAIEIATAHGYEIELNPESGTLVINATGPMLEEFKKIPGLEISSAGGSAGG [r6_724_TrMRF] and reply at your convenience. middle

Dear colleague, I would appreciate it if you could identify the bin for SAGLEDAQKEKRFVIKIEIRHPNGEKVKMTIAFKPGDPEDIRDELRKMGMPPDDLNERNPNLKIDEIEPSAG [r5_430_TrROS] and reply at your convenience. middle

Dear colleague, I would appreciate it if you could identify the bin for SAGGSAGGSAGGSKKKKIIIVVPKEELSEEQIKALKDLGYEIEIVEVEKKPVKVKKKKKSAGGSAGGSAGGS [r4_294_TrROS_Hall] and reply at your convenience. middle

Dear colleague, I would appreciate it if you could identify the bin for SAGGSAGGPKHVEIVITPDLRKEIEENQKEGDPPTLMEIAKEIAREFRANGMPVDIKILPPEDFSAGGSAGG [r6_815_TrROS] and reply at your convenience. low end

Dear colleague, I would appreciate it if you could identify the bin for SAGGGLEEFARRLAEELARLLGGPNVPFELEGVVVFGFRLRPDGTPEPTTSRPVVVRVRFETPGGDPSAGGS [r16_156_TrMRF] and reply at your convenience. high end

Dear colleague, I would appreciate it if you could identify the bin for SAGGSAGGGMSMEELKTVDYPLVVTVPLPDGSTVTVSAKVPAEDLDKAIPEVEERAKALAEEGASAGGSAGG [r6_903_JUSTAS] and reply at your convenience. middle

Dear colleague, I would appreciate it if you could identify the bin for SAGMTIEVEYTFPPGNPEEAEKRAEEIAEELKPKPLPNITIEISREPVVDPNSDATTTRYTFTITAEPKSAG [r5_49_JUSTAS] and reply at your convenience. middle

Dear colleague, I would appreciate it if you could identify the bin for SAGGRVRLEERVLPDGRRVLVVHLPDRPLEVVIPLEGLALPPDQPVLVRGEGGVRELPIGDLLPEALFSAGG [r13_97_TrMRF] and reply at your convenience. low end

Dear colleague, I would appreciate it if you could identify the bin for SAGGGWKPIGKEEITLPFGIKVTVDIWTWPDGMIMIMIEIEIPVPPPKPPVPPMSPEDMKDMNEDNGSAGGS [r16_6_TrROS] and reply at your convenience. high end

Dear colleague, I would appreciate it if you could identify the bin for SMKPGDTVIVKIEIEKKVDGKTVKKTIEKEIKIKPGETVEIELKGLPKGAKVRVEIFNADGKLIEEKELPSA [r9_478_TrROS_Hall] and reply at your convenience. middle

Dear colleague, I would appreciate it if you could identify the bin for SSPLINILTVEVTAETPSGGSFSKTFTFPASKYTEEEIREKIKEEYPDLTDIKITPKVTKIPPGPKILLASA [r9_841_JUSTAS] and reply at your convenience. middle
